Values were extracted from paper doi:10.1101/2024.02.14.580117.

Each entry below carries its recorded pKd.
target: Argonaute 2 (AGO2), loaded with miR-34a (Homo sapiens, UniProt Q9UKV8 1-859); test: EMSA
Sequence (Q9UKV8 whole entry): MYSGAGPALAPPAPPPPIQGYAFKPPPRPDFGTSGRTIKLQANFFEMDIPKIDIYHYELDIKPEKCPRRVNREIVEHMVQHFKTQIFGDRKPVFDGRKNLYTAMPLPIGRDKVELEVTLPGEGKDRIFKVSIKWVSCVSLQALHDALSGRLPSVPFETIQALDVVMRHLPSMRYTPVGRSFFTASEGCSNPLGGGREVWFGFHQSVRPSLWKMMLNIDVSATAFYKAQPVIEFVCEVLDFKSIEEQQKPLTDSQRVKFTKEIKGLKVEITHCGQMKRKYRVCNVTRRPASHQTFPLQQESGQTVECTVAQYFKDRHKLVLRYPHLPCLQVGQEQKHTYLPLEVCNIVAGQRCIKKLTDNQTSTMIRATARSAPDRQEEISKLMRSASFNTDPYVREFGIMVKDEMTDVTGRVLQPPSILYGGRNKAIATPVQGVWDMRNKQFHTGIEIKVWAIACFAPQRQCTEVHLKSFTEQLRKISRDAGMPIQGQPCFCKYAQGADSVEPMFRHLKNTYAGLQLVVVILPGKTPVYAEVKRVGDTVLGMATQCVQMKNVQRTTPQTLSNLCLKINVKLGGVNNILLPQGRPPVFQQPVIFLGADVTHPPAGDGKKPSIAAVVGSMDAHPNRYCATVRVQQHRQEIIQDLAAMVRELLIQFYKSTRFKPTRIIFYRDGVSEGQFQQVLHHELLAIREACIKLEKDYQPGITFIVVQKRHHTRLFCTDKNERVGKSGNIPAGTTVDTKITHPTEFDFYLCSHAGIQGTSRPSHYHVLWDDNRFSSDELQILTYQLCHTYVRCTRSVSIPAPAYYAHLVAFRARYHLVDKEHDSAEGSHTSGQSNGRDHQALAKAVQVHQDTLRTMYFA
To interpret pKd, take it as minus log10 of a concentration measured in moles per litre.

Field: example entries. Status: answers known.
miR-34a guide / BCL2 target (dsRNA, 5' phosphate on guide) RNA 1: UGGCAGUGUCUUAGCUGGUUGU RNA 2: UCGAAUCAGCUAUUUACUGCCA :: 8.05
miR-34a guide / PNUTS target (dsRNA, 5' phosphate on guide) RNA 1: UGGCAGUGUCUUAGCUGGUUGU RNA 2: AAAGUCACACUACAUGCACUGCCU :: 7.84
miR-34a guide / CDK6 target (dsRNA, 5' phosphate on guide) RNA 1: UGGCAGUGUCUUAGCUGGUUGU RNA 2: UACUUUCUGCCACACACUGCCU :: 7.57
miR-34a guide / MTA2 target (dsRNA, 5' phosphate on guide) RNA 1: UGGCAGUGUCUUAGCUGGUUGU RNA 2: GGUACCUGGUUGGGGGAGGGGGGCGUGCACUGCCA :: 7.18

## Task Using the record for miR-34a guide / DLL1 target (dsRNA, 5' phosphate on guide) RNA 1: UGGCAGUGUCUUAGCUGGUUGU RNA 2: CCGGCCGCCUGCGGCACUGCCU , report its pKd.
## Result 7.16

## Task How about miR-34a guide / HNF4a target (dsRNA, 5' phosphate on guide) RNA 1: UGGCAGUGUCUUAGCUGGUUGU RNA 2: AGGGCCACAUCCCACUGCCA ?
## Result 7.41

## Task Now the same for miR-34a guide / PERFECT target (dsRNA, 5' phosphate on guide) RNA 1: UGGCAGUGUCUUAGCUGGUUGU RNA 2: ACAACCAGCUAAGACACUGCCA
## Result 8.99
